Recorded values, source patent US20260374773A1.

Biological target: FLT3 D835H (Homo sapiens, UniProt P36888, D835H)
Assay: DiscoverX KINOMEscan active site-directed competition binding, FLT3 D835H
Details: Table 12; no ATP
pKd: −log10 of the molar value.
measure: pKd

compound=COc1cn2ncc(-c3nc(N[C@H]4CNCC[C@@H]4F)c(C#N)cc3F)c2nc1C1CC1 recorded_value=9.74
compound=COc1cn2ncc(-c3nc(N[C@H]4CNCC[C@@H]4F)c(C#N)cc3F)c2nc1C(C)(C)O recorded_value=9.70

###

Biological target: IRAK1 (Homo sapiens)
Test: DiscoverX KINOMEscan active site-directed competition binding, IRAK1
Details: Table 12; no ATP
Description: Kinase binding data were obtained for various exemplary compounds prepared according to Examples 1-8 using the DiscoverX KINOMEscan® active site-directed competition binding site-directed assay protocol described below. […] Compounds that directly or indirectly prevent kinase binding to the immobilized ligand reduce the amount of kinase captured on the solid support, which is detected using an ultra-sensitive qPCR method. […]
measure: Kd (nM)

[a] COc1cn2ncc(-c3nc(N[C@H]4CNCC[C@@H]4F)c(C#N)cc3F)c2nc1C(C)(C)O
[b] COc1cn2ncc(-c3nc(N[C@H]4CNCC[C@@H]4F)c(F)cc3F)c2nc1C(C)(C)O
Q. Of a and b , whose reported Kd is numerically smaller? // output: label of the selected item
A. b

###

Biological target: IRAK1 (Homo sapiens)
Assay: RBC HotSpot kinase inhibition assay, IRAK1
Assay type: biochemical
Conditions: Table 11; isolated kinase, 33P-ATP, 2 h
measure: IC50 (nM)

Record excerpt, results attached:
compound="FC(F)COc1cnc2c(-c3cccc(N[C@H]4CNC[C@@H]4F)n3)cnn2c1 [Compound 16]" measure=IC50 recorded_value=4300
compound="COc1cn2ncc(-c3cccc(N[C@H]4CNCC[C@@H]4F)n3)c2nc1C1CC1 [Compound 21]" measure=IC50 recorded_value=38
compound="CC(C)Oc1cnc2c(-c3cccc(N[C@H]4CNC[C@@H]4F)n3)cnn2c1 [Compound 17]" measure=IC50 recorded_value=3510

[P] COc1cn2ncc(-c3ccc(F)c(N[C@@H]4CCCNC4)n3)c2nc1C1CC1 [Compound 5]
[Q] COc1cn2ncc(-c3nc(N[C@H]4CNC[C@@H]4F)c(F)cc3F)c2nc1C1CC1 [Compound 24]
Q. Field: entry with larger IC50 (options P / Q ). // output: label of the selected item
A. P
(P: 29 nM, Q: 2 nM)

[1] COc1cn2ncc(-c3nc(N[C@H]4CNC[C@@H]4F)ccc3F)c2nc1C1CC1 [Compound 1]
[2] COc1cnc2c(-c3cccc(N[C@H]4CNC[C@@H]4F)n3)cnn2c1 [Compound 18]
Q. Of 1 and 2 , whose reported IC50 is numerically smaller? // output: label of the selected item
A. 1

###

Target: FLT3 (Homo sapiens, UniProt P36888)
Test: NanoBRET target engagement assay in HEK-293 cells, FLT3
Type: cell-based
Conditions: Table 14; live HEK-293 cells, 1 h
pIC50: −log10 of the molar value.
measure: pIC50

Record excerpt, results attached:
compound="COc1cn2ncc(-c3nc(N[C@@H]4CCCNC4)c(F)cc3F)c2nc1C(C)(C)O [Compound 11]" measure=pIC50 recorded_value=8.30
compound="COc1cn2ncc(-c3cccc(N[C@H]4CNCC[C@@H]4F)n3)c2nc1C1CC1 [Compound 21]" measure=pIC50 recorded_value=9.22

[P] COc1cn2ncc(-c3nc(N[C@H]4CNCC[C@@H]4F)c(F)cc3F)c2nc1C(C)(C)O [Compound 13]
[Q] COc1cn2ncc(-c3nc(N[C@H]4CNC[C@@H]4F)c(F)cc3F)c2nc1C(C)(C)O [Compound 12]
[R] COc1cn2ncc(-c3ccc(F)c(N[C@@H]4CCCNC4)n3)c2nc1C1CC1 [Compound 5]
Q. Please put the entries in order of rising pIC50. List each label, following the requested order.
A. Q, R, P

###

Molecular target: IRAK1 (Homo sapiens, UniProt P51617)
Sequence (P51617 whole entry): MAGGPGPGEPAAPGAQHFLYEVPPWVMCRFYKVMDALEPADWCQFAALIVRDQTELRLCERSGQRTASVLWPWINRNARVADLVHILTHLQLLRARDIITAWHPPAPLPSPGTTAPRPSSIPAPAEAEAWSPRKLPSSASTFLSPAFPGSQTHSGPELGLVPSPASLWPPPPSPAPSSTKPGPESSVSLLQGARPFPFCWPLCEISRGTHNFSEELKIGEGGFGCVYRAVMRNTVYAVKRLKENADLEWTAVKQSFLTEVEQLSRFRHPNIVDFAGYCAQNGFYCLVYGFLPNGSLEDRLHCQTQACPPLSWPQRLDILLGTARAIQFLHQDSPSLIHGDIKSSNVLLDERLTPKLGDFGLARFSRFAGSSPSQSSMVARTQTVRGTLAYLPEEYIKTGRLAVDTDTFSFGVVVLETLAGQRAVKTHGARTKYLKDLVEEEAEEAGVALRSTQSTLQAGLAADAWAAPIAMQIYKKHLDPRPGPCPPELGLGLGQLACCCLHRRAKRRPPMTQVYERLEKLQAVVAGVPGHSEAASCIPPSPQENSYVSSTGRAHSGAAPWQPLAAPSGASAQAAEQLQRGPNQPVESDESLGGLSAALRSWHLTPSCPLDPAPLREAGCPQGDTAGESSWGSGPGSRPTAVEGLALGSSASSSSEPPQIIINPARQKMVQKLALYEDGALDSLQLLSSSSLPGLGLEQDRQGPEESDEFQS
Experiment: RBC HotSpot kinase inhibition assay, IRAK1
Assay type: biochemical
Details: Table 11; isolated kinase, 33P-ATP, 2 h
measure: IC50 (nM)

compound=F[C@H]1CNC[C@@H]1Nc1cccc(-c2cnn3cc(C4CC4)cnc23)n1 recorded_value=1290

[1] COc1cn2ncc(-c3ccc(F)c(N[C@H]4CNC[C@@H]4F)n3)c2nc1C1CC1
[2] COc1cn2ncc(-c3cccc(N[C@H]4CNC[C@@H]4F)n3)c2nc1C1CC1
[3] COc1cn2ncc(-c3nc(N[C@H]4CNC[C@@H]4F)c(F)cc3F)c2nc1C(C)(C)O
Q. Please put the entries in order of rising IC50. List each label, following the requested order.
A. 1, 3, 2
(1: 4 nM, 3: 9 nM, 2: 45 nM)

###

Biological target: IRAK4 (Homo sapiens, UniProt Q9NWZ3)
Sequence (Q9NWZ3 whole entry): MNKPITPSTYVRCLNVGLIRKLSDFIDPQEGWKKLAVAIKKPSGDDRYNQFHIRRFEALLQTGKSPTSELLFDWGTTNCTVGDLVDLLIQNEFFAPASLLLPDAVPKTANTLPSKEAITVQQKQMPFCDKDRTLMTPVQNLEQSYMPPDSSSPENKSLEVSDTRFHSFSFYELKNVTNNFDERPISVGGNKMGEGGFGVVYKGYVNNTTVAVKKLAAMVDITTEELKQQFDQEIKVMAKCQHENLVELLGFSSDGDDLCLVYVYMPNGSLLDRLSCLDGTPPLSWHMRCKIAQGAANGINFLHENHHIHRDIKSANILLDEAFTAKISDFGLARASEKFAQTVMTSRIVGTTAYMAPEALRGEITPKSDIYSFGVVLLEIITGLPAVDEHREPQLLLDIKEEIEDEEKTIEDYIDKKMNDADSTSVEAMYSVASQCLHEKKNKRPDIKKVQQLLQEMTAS
Test: RBC HotSpot kinase inhibition assay, IRAK4
Assay type: biochemical
Conditions: Table 17; isolated kinase, 33P-ATP, 2 h
measure: IC50 (nM)

Record excerpt, results attached:
molecule=COc1cn2ncc(-c3nc(N[C@@H]4CCCNC4)ncc3F)c2nc1C(C)(C)O tested_target="IRAK4 (Homo sapiens, UniProt Q9NWZ3)" recorded_value=2
molecule="COc1cn2ncc(-c3nc(N[C@H]4CNCC[C@@H]4F)ncc3F)c2nc1C1CC1 [Compound 15a]" tested_target="IRAK4 (Homo sapiens, UniProt Q9NWZ3)" recorded_value=0.7
molecule="COc1cn2ncc(-c3nc(N[C@@H]4CCCNC4)ncc3F)c2nc1C1CC1 [Compound 14a]" tested_target="IRAK4 (Homo sapiens, UniProt Q9NWZ3)" recorded_value=0.6
molecule="COc1cn2ncc(-c3cncc(N[C@H]4CNC[C@@H]4F)n3)c2nc1C1CC1 [Compound 10a]" tested_target="IRAK4 (Homo sapiens, UniProt Q9NWZ3)" recorded_value=0.7
molecule=COc1cn2ncc(-c3ccnc(N[C@H]4CNCC[C@@H]4F)n3)c2nc1C1CC1 tested_target="IRAK4 (Homo sapiens, UniProt Q9NWZ3)" recorded_value=1
molecule=COc1cn2ncc(-c3ccnc(N[C@H]4CNC[C@@H]4F)n3)c2nc1C(C)(C)O tested_target="IRAK4 (Homo sapiens, UniProt Q9NWZ3)" recorded_value=9
molecule=COc1cn2ncc(-c3ccnc(N[C@@H]4CCCNC4)n3)c2nc1C1CC1 tested_target="IRAK4 (Homo sapiens, UniProt Q9NWZ3)" recorded_value=4
molecule=COc1cn2ncc(-c3nc(N[C@H]4CNCC[C@@H]4F)ncc3F)c2nc1C(C)(C)O tested_target="IRAK4 (Homo sapiens, UniProt Q9NWZ3)" recorded_value=0.7
molecule="COc1cn2ncc(-c3cncc(N[C@@H]4CCCNC4)n3)c2nc1C1CC1 [Compound 11a]" tested_target="IRAK4 (Homo sapiens, UniProt Q9NWZ3)" recorded_value=1
molecule="COc1cn2ncc(-c3cncc(N[C@H]4CNCC[C@@H]4F)n3)c2nc1C1CC1 [Compound 12a]" tested_target="IRAK4 (Homo sapiens, UniProt Q9NWZ3)" recorded_value=0.8

[a] COc1cn2ncc(-c3ccnc(N[C@@H]4CCCNC4)n3)c2nc1C(C)(C)O
[b] COc1cn2ncc(-c3ccnc(N[C@H]4CNCC[C@@H]4F)n3)c2nc1C(C)(C)O
Q. Of a and b , whose reported IC50 is numerically smaller? // output: label of the selected item
A. b
(b: 15 nM, a: 127 nM)

[A] COc1cn2ncc(-c3nc(N[C@H]4CNC[C@@H]4F)ncc3F)c2nc1C(C)(C)O
[B] COc1cn2ncc(-c3ccnc(N[C@H]4CNC[C@@H]4F)n3)c2nc1C1CC1
Q. Field: entry with larger IC50 (options A / B ). // output: label of the selected item
A. B

###

Molecular target: UniProtKB Q9NWZ3
Experiment: DiscoverX KINOMEscan active site-directed competition binding, IRAK4
Conditions: Table 18; no ATP
measure: Kd (nM)

[P] COc1cn2ncc(-c3ccnc(N[C@H]4CNCC[C@@H]4F)n3)c2nc1C1CC1
[Q] COc1cn2ncc(-c3nc(N[C@H]4CNCC[C@@H]4F)ncc3F)c2nc1C(C)(C)O
Q. Field: entry with larger Kd (options P / Q ). // output: label of the selected item
A. P

###

Target: IRAK1 (Homo sapiens, UniProt P51617)
Experiment: DiscoverX KINOMEscan active site-directed competition binding, IRAK1
Details: Table 18; no ATP
pKd: −log10 of the molar value.
measure: pKd

molecule=COc1cn2ncc(-c3ccnc(N[C@H]4CNCC[C@@H]4F)n3)c2nc1C1CC1 recorded_value=9.28

[P] COc1cn2ncc(-c3nc(N[C@H]4CNCC[C@@H]4F)ncc3F)c2nc1C(C)(C)O
[Q] COc1cn2ncc(-c3cncc(N[C@H]4CNCC[C@@H]4F)n3)c2nc1C1CC1 [Compound 12a]
Q. Of P and Q , whose reported pKd is numerically smaller? // output: label of the selected item
A. Q
